Target: Toll-like receptor 1/2 (Homo sapiens, UniProt O60603+Q15399)
Assay: Agonist activity at TLR1/TLR2 in human THP-1 derived macrophages assessed as stimulation of TNF alpha release measured for 4 hrs by ELISA based assay relative to diprovocim-1
Type: cell-based
Design: concentration or dose not given beside the values
Conditions: filed as agonist
Overview of recorded Activity for various molecules
Expressed in %, but write only the number.

For orientation, consider the following solved cases.
molecule=O=C(O)c1ccc(C(=O)NCCOCCCCCCCCCCCCNC(=O)[C@@H]2CN(C(=O)c3ccc(C(=O)N4C[C@@H](C(=O)N[C@H]5C[C@@H]5c5ccccc5)[C@H](C(=O)N[C@H]5C[C@@H]5c5ccccc5)C4)cc3)C[C@H]2C(=O)N[C@H]2C[C@@H]2c2ccccc2)cc1 readout_name=Activity numeric_readout=100
molecule=O=C(COCc1ccccc1)OCCCCCCCCCCCCNC(=O)[C@@H]1CN(C(=O)c2ccc(C(=O)N3C[C@@H](C(=O)N[C@H]4C[C@@H]4c4ccccc4)[C@H](C(=O)N[C@H]4C[C@@H]4c4ccccc4)C3)cc2)C[C@H]1C(=O)N[C@H]1C[C@@H]1c1ccccc1 readout_name=Activity numeric_readout=130
molecule=CC(C)(C)OC(=O)Nc1ccc(C(=O)OCCCCCCCCCCCCNC(=O)[C@@H]2CN(C(=O)c3ccc(C(=O)N4C[C@@H](C(=O)N[C@H]5C[C@@H]5c5ccccc5)[C@H](C(=O)N[C@H]5C[C@@H]5c5ccccc5)C4)cc3)C[C@H]2C(=O)N[C@H]2C[C@@H]2c2ccccc2)cc1 readout_name=Activity numeric_readout=90
molecule=CC(C)(C)OC(=O)N[C@@H](CCCCNC(=O)OCC1c2ccccc2-c2ccccc21)C(=O)OCCCCCCCCCCCCNC(=O)[C@@H]1CN(C(=O)c2ccc(C(=O)N3C[C@@H](C(=O)N[C@H]4C[C@@H]4c4ccccc4)[C@H](C(=O)N[C@H]4C[C@@H]4c4ccccc4)C3)cc2)C[C@H]1C(=O)N[C@H]1C[C@@H]1c1ccccc1 readout_name=Activity numeric_readout=100
molecule=CC(C)[C@H](NC(=O)OC(C)(C)C)C(=O)OCCCCCCCCCCCCNC(=O)[C@@H]1CN(C(=O)c2ccc(C(=O)N3C[C@@H](C(=O)N[C@H]4C[C@@H]4c4ccccc4)[C@H](C(=O)N[C@H]4C[C@@H]4c4ccccc4)C3)cc2)C[C@H]1C(=O)N[C@H]1C[C@@H]1c1ccccc1 readout_name=Activity numeric_readout=100
molecule=O=C(CNC(=O)C(=O)O)OCCCCCCCCCCCCNC(=O)[C@@H]1CN(C(=O)c2ccc(C(=O)N3C[C@@H](C(=O)N[C@H]4C[C@@H]4c4ccccc4)[C@H](C(=O)N[C@H]4C[C@@H]4c4ccccc4)C3)cc2)C[C@H]1C(=O)N[C@H]1C[C@@H]1c1ccccc1 readout_name=Activity numeric_readout=120
molecule=O=C(O)c1ccc(C(=O)OCCCCCCCCCCCCNC(=O)[C@@H]2CN(C(=O)c3ccc(C(=O)N4C[C@@H](C(=O)N[C@H]5C[C@@H]5c5ccccc5)[C@H](C(=O)N[C@H]5C[C@@H]5c5ccccc5)C4)cc3)C[C@H]2C(=O)N[C@H]2C[C@@H]2c2ccccc2)cc1 readout_name=Activity numeric_readout=100
molecule=Nc1ccc(C(=O)OCCCCCCCCCCCCNC(=O)[C@@H]2CN(C(=O)c3ccc(C(=O)N4C[C@@H](C(=O)N[C@H]5C[C@@H]5c5ccccc5)[C@H](C(=O)N[C@H]5C[C@@H]5c5ccccc5)C4)cc3)C[C@H]2C(=O)N[C@H]2C[C@@H]2c2ccccc2)cc1 readout_name=Activity numeric_readout=100
molecule=CC(C)(C)OC(=O)c1ccc(C(=O)NCCOCCCCCCCCCCCCNC(=O)[C@@H]2CN(C(=O)c3ccc(C(=O)N4C[C@@H](C(=O)N[C@H]5C[C@@H]5c5ccccc5)[C@H](C(=O)N[C@H]5C[C@@H]5c5ccccc5)C4)cc3)C[C@H]2C(=O)N[C@H]2C[C@@H]2c2ccccc2)cc1 readout_name=Activity numeric_readout=110
molecule=CN(C)CC(=O)OCCCCCCCCCCCCNC(=O)[C@@H]1CN(C(=O)c2ccc(C(=O)N3C[C@@H](C(=O)N[C@H]4C[C@@H]4c4ccccc4)[C@H](C(=O)N[C@H]4C[C@@H]4c4ccccc4)C3)cc2)C[C@H]1C(=O)N[C@H]1C[C@@H]1c1ccccc1 readout_name=Activity numeric_readout=100

So what does the record say about Activity for `O=C(NCCCCCCCCCCCCO)[C@@H]1CN(C(=O)c2ccc(C(=O)N3C[C@@H](C(=O)N[C@H]4C[C@@H]4c4ccccc4)[C@H](C(=O)N[C@H]4C[C@@H]4c4ccccc4)C3)cc2)C[C@H]1C(=O)N[C@H]1C[C@@H]1c1ccccc1` ? 90

Requested read-out: Activity. Entry: `N#CCC(=O)OCCCCCCCCCCCCNC(=O)[C@@H]1CN(C(=O)c2ccc(C(=O)N3C[C@@H](C(=O)N[C@H]4C[C@@H]4c4ccccc4)[C@H](C(=O)N[C@H]4C[C@@H]4c4ccccc4)C3)cc2)C[C@H]1C(=O)N[C@H]1C[C@@H]1c1ccccc1` 130

So what's the measured Activity for this one? `C[C@@H](NC(=O)OC(C)(C)C)C(=O)OCCCCCCCCCCCCNC(=O)[C@@H]1CN(C(=O)c2ccc(C(=O)N3C[C@@H](C(=O)N[C@H]4C[C@@H]4c4ccccc4)[C@H](C(=O)N[C@H]4C[C@@H]4c4ccccc4)C3)cc2)C[C@H]1C(=O)N[C@H]1C[C@@H]1c1ccccc1` 110

Given the entry `COC(=O)NCC(=O)OCCCCCCCCCCCCNC(=O)[C@@H]1CN(C(=O)c2ccc(C(=O)N3C[C@@H](C(=O)N[C@H]4C[C@@H]4c4ccccc4)[C@H](C(=O)N[C@H]4C[C@@H]4c4ccccc4)C3)cc2)C[C@H]1C(=O)N[C@H]1C[C@@H]1c1ccccc1` , report its measured Activity. 100

Entry under review: `CC(C)(C)OC(=O)NCCCCCCCCCCCCNC(=O)[C@@H]1CN(C(=O)c2ccc(C(=O)N3C[C@@H](C(=O)N[C@H]4C[C@@H]4c4ccccc4)[C@H](C(=O)N[C@H]4C[C@@H]4c4ccccc4)C3)cc2)C[C@H]1C(=O)N[C@H]1C[C@@H]1c1ccccc1` . Reported Activity? 70
